Catalogue of MIC values
System: Haemophilus influenzae H128
Quick reminder: number only, in µg/mL, skip the unit.

Example entries begin here.
O=CN(O)C[C@@H](CC1CCCC1)C(=O)N1N=CC[C@H]1C(=O)Nc1ccncn1 0.5
O=CN(O)C[C@@H](CC1CCCC1)C(=O)N1NCC[C@H]1C(=O)Nc1ccncn1 0.5
CN(C)Cc1nccc(NC(=O)[C@@H]2CCNN2C(=O)[C@H](CC2CCCC2)CN(O)C=O)n1 0.5
O=CN(O)C[C@@H](CC1CCCC1)C(=O)N1NCC[C@H]1C(=O)Nc1cccc[n+]1[O-] 1

In the following, a different compound is considered.
Asked: Enter reported MIC observed with Haemophilus influenzae H128 for O=CN(O)C[C@@H](CC1CCCC1)C(=O)N1NCC[C@H]1C(=O)Nc1ncccn1
Given back: 0.5

====

Test system: Haemophilus influenzae Q1
Test: Antimicrobial activity assay (broth microdilution MIC)
Type: cell-based
Details: Q1, broth microdilution, read-out: MIC, H. influenzae Q1
MEASUREMENT NAME: MIC
Kindly write the number and append the unit.

COMPOUND	SYSTEM TESTED	MIC
O=CN(O)C[C@@H](CC1CCCC1)C(=O)N1N=CC[C@H]1C(=O)Nc1ccncn1 [Example 92]	Haemophilus influenzae Q1	0.5 µg/mL
O=CN(O)C[C@@H](CC1CCCC1)C(=O)N1NCC[C@H]1C(=O)Nc1ccncn1 [Example 59]	Haemophilus influenzae Q1	0.25 µg/mL
O=CN(O)C[C@@H](CC1CCCC1)C(=O)N1NCC[C@H]1C(=O)Nc1cccc[n+]1[O-] [Example 45]	Haemophilus influenzae Q1	0.5 µg/mL

Asked: Enter reported MIC observed with Haemophilus influenzae Q1 for CN(C)Cc1nccc(NC(=O)[C@@H]2CCNN2C(=O)[C@H](CC2CCCC2)CN(O)C=O)n1 [Example 91]
Given back: 0.5 µg/mL
